# target: Bcl-xL, Q07817
# Sequence (Q07817 1-209): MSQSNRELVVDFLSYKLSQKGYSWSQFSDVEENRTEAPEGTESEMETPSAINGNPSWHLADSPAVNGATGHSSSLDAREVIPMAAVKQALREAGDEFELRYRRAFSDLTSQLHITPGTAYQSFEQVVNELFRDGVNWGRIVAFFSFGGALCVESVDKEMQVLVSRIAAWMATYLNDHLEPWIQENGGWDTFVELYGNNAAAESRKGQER
# assay_text: peptide SPOT array, c-Myc-tagged receptor at 1 uM or 100 nM, anti-c-Myc-Cy3
assay_metric: SPOT signal as a fraction of Bim BH3's signal on the same receptor and array
Give your answer as a number; write no unit.

Problem: Entry under review: PSLSKELTSSLAGVGDVSFDSDSQFP [CRTC1] . Reported SPOT signal as a fraction of Bim BH3's signal on the same receptor and array?
Solution: 0.01

Problem: State the recorded SPOT signal as a fraction of Bim BH3's signal on the same receptor and array for this entry: AIILCNVCGNDCTDCDRFLHLHRRTK [MYCBP2]
Solution: 0.2

Problem: Look up SPOT signal as a fraction of Bim BH3's signal on the same receptor and array for this binder: SEIMHSFAKCDEVMGDGCLNNEHFEE [IPO5]
Solution: 0.09

Problem: # get_value(readout='SPOT signal as a fraction of Bim BH3's signal on the same receptor and array', item= NMSNYSSSSLLSGAGKDSLVEHDEEF [KIAA0367] )
Solution: 0.03

Problem: Fill in the blank: the reported SPOT signal as a fraction of Bim BH3's signal on the same receptor and array of ISSYMVLAPVDGYLGDRYNRKYLMCG [SPNS1] is ____.
Solution: 1.03

Others:
Problem: For the binder shown here, GEGAEEAAKDLADIAAFFRSGFRKND [TRIO] , give the reported SPOT signal as a fraction of Bim BH3's signal on the same receptor and array.
Solution: 0.03

Problem: Which SPOT signal as a fraction of Bim BH3's signal on the same receptor and array value belongs to AEHEDDLPENLSEIADLWNSPTRTHG [CDH23] ?
Solution: 0.02
